The measured values listed here are drawn from PubChem BioAssay (NCI).

- Test system: NCI-H522 lung
- Protocol summary: NCI-60 one-dose screen, 48 h (100 = growth as untreated, 0 = no growth, -100 = all killed)
- Condition: 10 µM unless noted
Compounds without any hit were thinned out: in the full panel of roughly 83,000, 20% have a hit.
Listed below: growth values for each entry.
Enter your answer as a number in %; do not include the unit.

>>> measured_value("COc1ccc(/C=N/C2=NNC(C)(c3ccccc3O)N2C(Cc2c[nH]c3ccccc23)C(=O)O)cc1 (configuration not stated)")
18.9
>>> measured_value("Cc1cc(O[C@@H]2O[C@@H](C)[C@H](O)[C@@H](O)[C@H]2O)c2c3c(c(O[C@@H]4O[C@@H](C)[C@H](O)[C@@H](O)[C@H]4O)cc2c1)C(=O)c1c(O)cccc1C3=O")
64.8
>>> measured_value("COc1cc(NC(C)CCCN2C(=O)c3ccccc3C2=O)c2nccc(C)c2c1OC (configuration not stated)")
75.2
>>> measured_value("O=[N+]([O-])c1cccc(C(c2ccccc2)c2ccccc2)c1")
79.1

Let me know recorded growth for CC12CCC3C(CCC4CC(O)CCC43C)C1C/C(=C/O)C(=O)O2 (configuration not stated) , thanks.
84.2

Kindly indicate its recorded growth. Item: "C#C[C@@]1(O)[C@@H](CO)O[C@@H](n2cc(C(F)(F)F)c3c(N)ncnc32)[C@@H]1O"
-52.5

Provide measured growth value, entry: "Nc1nc(-c2cc3c(cc2Cl)NC(=O)/C3=C/c2ccc(Cl)cc2)cs1"
17.3
